Every entry's value here was drawn from patent US20250108036A1.

# Tested on: foreskin cells in which senescence was induced by doxorubicin
# test: CellTiter-Glo cell viability of doxorubicin-induced senescent foreskin cells (Examples 1-2, 10, 11, 13; Tables 4, 63, 65)
# Assay type: cell-based, human
# experimental-conditions: 30 μM test compound; doxorubicin-induced senescent foreskin cells; CellTiter-Glo; 0 μM = 100
Measured Survival (%) values are reported for all entries that follow.

{"compound": "CN1CC[C@@H](Nc2cccc3c2cc(-c2noc(CNC(=O)c4cnn(C(C)(C)C)c4)n2)n3CC(F)(F)F)[C@@H](F)C1", "Survival (%)": 8.5}
{"compound": "C[Se](=O)O", "Survival (%)": 37.7}
{"compound": "CN(C)CCn1cc(-c2ccc(F)cc2)c(-n2cccc2)n1 [LX-909]", "Survival (%)": 2.8}
{"compound": "CS(=O)(=O)c1ncc(Cl)c(C(=O)O)n1", "Survival (%)": 4.7}
{"compound": "C[N+](C)(C)CCO.C[N+](C)(C)CCO.[SH-].[SH-].[S]=[Mo]=[S]", "Survival (%)": 21.8}
{"compound": "C[Si](C)(Cc1ccc(F)cc1)CN1CCCCC1.Cl [LX-1407, Silperisone, reference compound]", "Survival (%)": 19.9}
{"compound": "CCOC(=O)[C@@H](N)CCC(=O)N[C@@H](CSCc1ccccc1)C(=O)N[C@@H](C(=O)OCC)c1ccccc1 [LX-2602, Ezatiostat, reference compound]", "Survival (%)": 47.6}
{"compound": "CC(N)(Cc1ccc(O)cc1)C(=O)O (racemic) [LX-3206, Racemetyrosine, reference compound]", "Survival (%)": 21.3}
